System: NCI-H1650
procedure text: relative viability (nuclei count vs DMSO), 5 days (fraction); higher = more cells survive
condition set: first compound 0.02 µM
For each record, write down the corresponding relative viability.
Keep the answer to the number alone.

INPUT: Look up relative viability with NCI-H1650 for this compound: CCNC(=O)c1noc(-c2cc(C(C)C)c(O)cc2O)c1-c1ccc(CN2CCOCC2)cc1 [Luminespib] + C[C@@H](Oc1cc(-c2cnn(C3CCNCC3)c2)cnc1N)c1c(Cl)ccc(F)c1Cl [Crizotinib] (partner 1 µM)
OUTPUT: 0.7

INPUT: What do you get for CN1CCN(CCOc2cc(OC3CCOCC3)c3c(Nc4c(Cl)ccc5c4OCO5)ncnc3c2)CC1 [Saracatinib] + Cc1nc(Nc2ncc(C(=O)Nc3c(C)cccc3Cl)s2)cc(N2CCN(CCO)CC2)n1 [Dasatinib] (partner 0.075 µM) ?
OUTPUT: 0.378

INPUT: What do you get for CCNC(=O)c1noc(-c2cc(C(C)C)c(O)cc2O)c1-c1ccc(CN2CCOCC2)cc1 [Luminespib] + CS(=O)(=O)N1CCN(Cc2cc3nc(-c4cccc5[nH]ncc45)nc(N4CCOCC4)c3s2)CC1 [Pictilisib] (partner 1 µM) ?
OUTPUT: 0.199

###

For each record, write down the corresponding relative viability.
Test system: NCI-H1734
procedure text: relative viability (nuclei count vs DMSO), 5 days (fraction); higher = more cells survive
condition set: first compound 0.8 µM
Keep the answer to the number alone.

INPUT: Fill in: relative viability of Nc1cccc2c1CN(C1CCC(=O)NC1=O)C2=O (stereo not drawn) [Lenalidomide] + CC(C)C[C@H](NC(=O)[C@H](Cc1ccccc1)NC(=O)c1cnccn1)B(O)O [Bortezomib] (partner 0.002 µM) is ___
OUTPUT: 0.907

INPUT: What do you get for Nc1cccc2c1CN(C1CCC(=O)NC1=O)C2=O (stereo not drawn) [Lenalidomide] + CC(=O)c1c(C)c2cnc(Nc3ccc(N4CCNCC4)cn3)nc2n(C2CCCC2)c1=O [Palbociclib] (partner 0.5 µM) ?
OUTPUT: 0.392

INPUT: What do you get for Nc1cccc2c1CN(C1CCC(=O)NC1=O)C2=O (stereo not drawn) [Lenalidomide] + Nc1nc2[nH]cc(CCc3ccc(C(=O)N[C@@H](CCC(=O)O)C(=O)O)cc3)c2c(=O)[nH]1 [Pemetrexed] (partner 0.2 µM) ?
OUTPUT: 0.465

###

For each record, write down the corresponding relative viability.
System: EMC-BAC-2
procedure text: relative viability (nuclei count vs DMSO), 5 days (fraction); higher = more cells survive
condition set: first compound 2.53 µM
Keep the answer to the number alone.

INPUT: Fill in: relative viability of Nc1cccc2c1CN(C1CCC(=O)NC1=O)C2=O (centres undefined) [Lenalidomide] + C[C@@H](Oc1cc(-c2cnn(C3CCNCC3)c2)cnc1N)c1c(Cl)ccc(F)c1Cl [Crizotinib] (partner 1 µM) is ___
OUTPUT: 0.815

INPUT: What do you get for Nc1cccc2c1CN(C1CCC(=O)NC1=O)C2=O (centres undefined) [Lenalidomide] + NC(=O)Nc1cc(-c2cccc(F)c2)sc1C(=O)N[C@H]1CCCNC1 [AZD7762] (partner 0.2 µM) ?
OUTPUT: 1.19

INPUT: What do you get for Nc1cccc2c1CN(C1CCC(=O)NC1=O)C2=O (centres undefined) [Lenalidomide] + Nc1ncn([C@H]2C[C@H](O)[C@@H](CO)O2)c(=O)n1 [Decitabine] (partner 2 µM) ?
OUTPUT: 0.995

INPUT: What do you get for Nc1cccc2c1CN(C1CCC(=O)NC1=O)C2=O (centres undefined) [Lenalidomide] + CS(=O)(=O)N1CCN(Cc2cc3nc(-c4cccc5[nH]ncc45)nc(N4CCOCC4)c3s2)CC1 [Pictilisib] (partner 1 µM) ?
OUTPUT: 0.535
